Target: FITC-Lys (lysozyme) (Gallus gallus, UniProt P00698)
Construct: Lyophilized lysozyme from chicken egg white, ≥90% purity; purchased Millipore (Darmstadt, Germany); host or cells: chicken egg white (natural source)
Sequence (P00698 19-147): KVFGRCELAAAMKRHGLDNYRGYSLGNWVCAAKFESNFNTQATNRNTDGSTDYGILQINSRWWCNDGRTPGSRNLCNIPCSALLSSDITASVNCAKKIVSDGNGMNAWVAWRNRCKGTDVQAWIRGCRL
Experiment: Microscale thermophoresis (MST) binding of ABS phase-forming components to FITC-labeled lysozyme
Set-up: species or system chicken
Settings: FITC-Lys 0.41 μM, 25 °C; max. conc. (first capillary) in 1st CAC range ([14.4, 34.48[ or [16.02, 35.17[ mM); read-out: Kd
result-type: Kd

Looking up O=S(=O)(O)C(F)(F)C(F)(F)C(F)(F)C(F)(F)F [[N1112(OH) ][C4F9SO3]] , I found its Kd recorded as 6.05 mM

---

Target: FITC-Lys (lysozyme) (Gallus gallus)
Construct: Lyophilized lysozyme from chicken egg white, ≥90% purity; purchased Millipore (Darmstadt, Germany); host or cells: chicken egg white (natural source)
Experiment: Microscale thermophoresis (MST) binding of ABS phase-forming components to FITC-labeled lysozyme
Set-up: species or system chicken
Conditions: FITC-Lys 0.41 μM, 25 °C; max. conc. (first capillary) in 2nd CAC range ([34.48, 76.54[ or [35.17, 185.65[ mM); read-out: Kd
result-type: Kd (mM)
I only need the number, in mM, no unit after it.

# molecule O=S(=O)(O)C(F)(F)C(F)(F)C(F)(F)C(F)(F)F [[N1112(OH) ][C4F9SO3]] ; its Kd = 6.25
